# assay: Human HepG2 cell viability assay in 384 well format
# Format: toxicity, cell-based
# Parameters: dose 125 nL, time 70.5 hour; concentration not given beside the values
# run parameters: HepG2 cells, read-out: Inhibition
Attribute: cytotoxicity at 70.5 h
Reply with just the number (in %).

Some entries whose results are on file:
                                   compound  assay_value
0          O=C(NCCNc1ccc(Br)cn1)c1ccc(O)cc1        -6.46
1  O=C(Cn1ccc2c(Cl)cccc21)N[C@@H](C(=O)O)c1ccccc1        0.804
2  c1cnc(-c2cnc(N3CCCCC3)nc2C2CCCO2)cn1 (centres undefined)        -5.56
3  O=C(NC1CCc2cc(Cl)ccc21)C1CCN(C(=O)C2CC2)CC1 (centres undefined)        -4.11
4  CS(=O)(=O)c1cc(Cl)cnc1C1CCN(C(=O)C2CC2)CC1       -0.478
5  CC(C)(O)c1cn(C2CCN(C(=O)CCC(F)(F)F)CC2)nn1        -2.56
6  COc1cccc(CC2CN(C3CCCCC3)CCO2)c1 (centres undefined)         25.1
7  Cc1cccc(C2CCCN(C(=O)CN3CCCC3=O)C2)c1 (centres undefined)        -21.9
8            COC(=O)c1ccc(CN(C(C)C)C(C)C)o1        -2.95
9  Cc1c(C2CCCN(C(=O)c3ccncc3)C2)n2c(nc1=O)CCC2 (centres undefined)         -9.8

# query: cytotoxicity at 70.5 h of entry CC(CC#N)N1CCN(C(=O)OC(C)(C)C)CC1 (centres undefined)
13.3

Look up cytotoxicity at 70.5 h for this compound: COc1c(C2CCCN2C(=O)c2ccnc(N(C)C)c2)c(C)nn1C (centres undefined)
-6.74

Report cytotoxicity at 70.5 h for `O=C(c1ccnnc1)N1C[C@H](OCc2ccccn2)[C@H]2COC[C@H]21` please.
4.62

I have this compound here, `Cc1cc(CN(C)c2nc(-c3ccccn3)nc3c2CCNCC3)n[nH]1` , and I need its recorded cytotoxicity at 70.5 h.
-11.1

Entry `Nc1cc2c(nn1)CCN(C(=O)c1csc(-c3ccco3)n1)C2` has what cytotoxicity at 70.5 h?
-4.34

Recorded cytotoxicity at 70.5 h for `O=C(CCc1ccccc1)N1C[C@@H]2CN(Cc3ccoc3)CCO[C@@H]2C1` , please?
-11.8

* * *

# assay: Human HepG2 cell viability assay in 384 well format
# Type: toxicity, cell-based
# Design: dose 125 nL, time 70.5 hour; concentration not given beside the values
# run parameters: HepG2 cells, read-out: Inhibition
parameter measured: cytotoxicity at 70.5 h (%)
Lab book: enter the figure in %, no units written.

Given `O=C(NCc1ccccc1OCCO)Nc1ccc2c(c1)CCC2` , state its recorded cytotoxicity at 70.5 h.
0.688

Return reported cytotoxicity at 70.5 h; argument: `O=C(NCCn1nc2ccccn2c1=O)c1cc(-c2ccccc2)[nH]n1`
-5.05

What measured cytotoxicity at 70.5 h goes with CCC(C(=O)Nc1ccc2nc(C)oc2c1)N1CCCC1=O (stereo unspecified) ?
20.5

What measured cytotoxicity at 70.5 h goes with `Cc1cc(=O)[nH]c(=O)n1-c1cccc(Cl)c1Cl` ?
-12.3

What does the data say about its cytotoxicity at 70.5 h? Entry: CCc1nnc(CN(C)C2CCCN(Cc3noc(C4CC4)n3)C2)o1 (stereo unspecified)
12.1

Sample `CN(C)S(=O)(=O)c1ccc(CNc2ccc(Cl)cn2)cc1` — what was its cytotoxicity at 70.5 h?
0.742

# get_value(readout='cytotoxicity at 70.5 h', item= `CN1CCC(N(CCc2ccccc2)C(=O)c2cc[nH]c2)CC1` )
-7.32

Can you look up the measured cytotoxicity at 70.5 h of `CN(Cc1nc2ccccc2c(=O)[nH]1)C[C@@H]1CCCN2CCCC[C@H]12` for me?
-2.89

Record request: cytotoxicity at 70.5 h value, item Cc1cnn(CC(C)NCc2ccc(OCC(N)=O)cc2)c1 (stereo unspecified)
11.6

What value of cytotoxicity at 70.5 h has been reported for the following compound? O=C(c1ccnc(-n2cnnc2)c1)N1CCCC2(CCOC2)C1 (stereo unspecified)
-2.19

Please report the recorded cytotoxicity at 70.5 h for `CC(C)n1c2ccccc2c2c1cc(C(=O)NC1CC1)n2C(=O)N(C)C` .
1.81

* * *

# assay: Human HepG2 cell viability assay in 384 well format
# Type: toxicity, cell-based
# Design: dose 125 nL, time 70.5 hour; concentration not given beside the values
# run parameters: HepG2 cells, read-out: Inhibition
parameter measured: cytotoxicity at 70.5 h (%)
Use % as the unit, but write only the number.

Would you please look over these solved cases?
>>> print(df.to_string())
                                   compound  assay_value
0  CC(C)(C)c1cnc(CN2CCCC2Cn2cccn2)o1 (stereo not drawn)        -5.71
1  O=C(NC1=NCCS1)C1CSCN1C(=O)C1CCCC1 (stereo not drawn)        -12.4

Any idea what its cytotoxicity at 70.5 h is? The compound is Cc1noc(C)c1-c1ccc(C2CCCN2C(=O)c2ccncn2)nc1 (stereo not drawn)
27.1

Requested read-out: cytotoxicity at 70.5 h. Entry: CC(C)S(=O)(=O)NCC1CCCN(C(=O)c2ccc3c(c2)CCC3)C1 (stereo not drawn)
1.31

* * *

# assay: Human HepG2 cell viability assay in 384 well format
# Assay type: toxicity, cell-based
# Set-up: dose 125 nL, time 70.5 hour; concentration not given beside the values
# run parameters: HepG2 cells, read-out: Inhibition
The entries below are paired with their reported cytotoxicity at 70.5 h.
Respond with the bare value in %.

Example results:
In [3]: df
Out[3]:
                                   molecule      parameter_measured  assay_value
0  COc1cc(C(=O)O)ccc1OCC(=O)NC(C)c1ccc(F)cc1 (configuration not stated)  cytotoxicity at 70.5 h        -5.08
1  COc1cccc2c1OCC(CNC(=O)Cc1csc(C(C)=O)c1)C2 (configuration not stated)  cytotoxicity at 70.5 h         14.4
2         Cn1cc(CNS(=O)(=O)c2cc(F)ccc2F)cn1  cytotoxicity at 70.5 h        -6.49
3  CC(C)Nc1cccc(C(=O)NCC(O)c2ccc(F)cc2F)c1 (configuration not stated)  cytotoxicity at 70.5 h        -1.19

Recorded cytotoxicity at 70.5 h for Cc1cccc(N2CCOCC3(C2)CN(c2ccoc2)C(=O)CO3)n1 (configuration not stated) , please?
6.55

Looking for the measured cytotoxicity at 70.5 h of Cc1cccc(C(C)CNC(=O)N2CCC3(C2)OCCO3)c1 (configuration not stated) , can you help?
12.8

Requested field: cytotoxicity at 70.5 h. Item: `Cc1cc(NC(=O)NCc2cccnc2OC(C)C)no1`
-0.0866

* * *

# assay: Human HepG2 cell viability assay in 384 well format
# Type: toxicity, cell-based
# Set-up: dose 125 nL, time 70.5 hour; concentration not given beside the values
# run parameters: HepG2 cells, read-out: Inhibition
parameter measured: cytotoxicity at 70.5 h

Please review the following examples before continuing.
>>> df
                                   compound      parameter_measured  assay_value
0          CCn1ccnc1CNCc1ccc(C)cc1OC(C)(C)C  cytotoxicity at 70.5 h         -11%
1  COc1ccc(N2CCN(C(=O)CCn3nccc3C)C(C)C2)cc1 (configuration not stated)  cytotoxicity at 70.5 h       -3.13%
2    COc1cccc2cc(CNCc3ccnc(N4CCCCC4)c3)oc12  cytotoxicity at 70.5 h        3.87%
3  CCN(C(=O)c1ccc2nncn2c1)C(C)Cc1ccc(OC)cc1 (configuration not stated)  cytotoxicity at 70.5 h       -5.25%
4  CCN(CC)S(=O)(=O)c1ccc(CCC(=O)NCc2cc(C)on2)cc1  cytotoxicity at 70.5 h       -7.82%
5           c1cnc(Nc2cc(CCC3CCNCC3)ccn2)cn1  cytotoxicity at 70.5 h        5.45%

GET /values?readout=cytotoxicity at 70.5 h&item= Cc1nccn1CC1CCCN1S(=O)(=O)Cc1cccc(C#N)c1 (configuration not stated)
29.1%

For the compound `O=C(N1CCC(Nc2cccnn2)CC1)C1(c2ccc(F)cc2)CC1` , what cytotoxicity at 70.5 h is on record?
-6.39%

// returns reported cytotoxicity at 70.5 h for input CSC(C)C(=O)N1CCN(CCO)CC1 (configuration not stated)
-6.94%

Reported cytotoxicity at 70.5 h for CS(=O)(=O)N1CCCCCC1c1cc(-c2ccc(F)cc2)no1 (configuration not stated) : what is it?
5.67%

Consider the compound `CCN(C)c1ncnc2c1CCN(C(=O)[C@H]1CCCO1)CC2` and give its measured cytotoxicity at 70.5 h.
-9.23%

Query: cytotoxicity at 70.5 h; subject: CCOCCC(=O)N1CCCCC1CCn1cccn1 (configuration not stated)
-6.8%

Values were extracted from ChEMBL document CHEMBL3507680.
